Measured values drawn from PubChem BioAssay AID1963971 for this set.

Reported viability, T/C values for a set of compounds
- Test system: 953936-095-R-J2-PDC spheroids with HUVEC/MSC, viability;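 note: spheroids exposed to compounds for seven days before read-out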
- assay explanation: Anticancer human tumor 953936-095-R-J2-PDC patient-derived cervical squamous cell carcinoma cell line growth inhibition [PI3K]
- assay conditions: second compound 10 µM; first compound 1 µM; stronger effect = lower value

{"compound": "Cn1nccc1Nc1nccc(-c2ccn(C(CO)c3ccc(Cl)c(F)c3)c(=O)c2)n1 (centres undefined) + CC(Nc1ncnc2nc[nH]c12)c1cc2cccc(Cl)c2c(=O)n1-c1ccccc1", "measure": "viability, T/C", "val": "51.6%"}

Asked: Find viability, T/C (953936-095-R-J2-PDC spheroids with HUVEC/MSC, viability) for the entry Cn1ncc(Cl)c1-c1cc(C(=O)NC(CN)Cc2cccc(F)c2)sc1Cl (centres undefined) + CC(Nc1ncnc2nc[nH]c12)c1cc2cccc(Cl)c2c(=O)n1-c1ccccc1
Given back: 30.5%

Asked: Same question for CC1(C)CCC(Nc2ncc(C(F)(F)F)c(-c3c[nH]c4c(P(C)(C)=O)c(C#N)ccc34)n2)CN1 (centres undefined) + CC(Nc1ncnc2nc[nH]c12)c1cc2cccc(Cl)c2c(=O)n1-c1ccccc1 please.
Given back: 39.6%

Asked: Same question for CC(Cn1ccc(-c2ccc(C#N)c(Cl)c2)n1)NC(=O)c1cc(C(C)O)[nH]n1 (centres undefined) + CC(Nc1ncnc2nc[nH]c12)c1cc2cccc(Cl)c2c(=O)n1-c1ccccc1 please.
Given back: 60.5%
